# tgt: PARP-1 enzyme (Homo sapiens, UniProt P09874)
# Construct: made in house
# Sequence (P09874 whole entry): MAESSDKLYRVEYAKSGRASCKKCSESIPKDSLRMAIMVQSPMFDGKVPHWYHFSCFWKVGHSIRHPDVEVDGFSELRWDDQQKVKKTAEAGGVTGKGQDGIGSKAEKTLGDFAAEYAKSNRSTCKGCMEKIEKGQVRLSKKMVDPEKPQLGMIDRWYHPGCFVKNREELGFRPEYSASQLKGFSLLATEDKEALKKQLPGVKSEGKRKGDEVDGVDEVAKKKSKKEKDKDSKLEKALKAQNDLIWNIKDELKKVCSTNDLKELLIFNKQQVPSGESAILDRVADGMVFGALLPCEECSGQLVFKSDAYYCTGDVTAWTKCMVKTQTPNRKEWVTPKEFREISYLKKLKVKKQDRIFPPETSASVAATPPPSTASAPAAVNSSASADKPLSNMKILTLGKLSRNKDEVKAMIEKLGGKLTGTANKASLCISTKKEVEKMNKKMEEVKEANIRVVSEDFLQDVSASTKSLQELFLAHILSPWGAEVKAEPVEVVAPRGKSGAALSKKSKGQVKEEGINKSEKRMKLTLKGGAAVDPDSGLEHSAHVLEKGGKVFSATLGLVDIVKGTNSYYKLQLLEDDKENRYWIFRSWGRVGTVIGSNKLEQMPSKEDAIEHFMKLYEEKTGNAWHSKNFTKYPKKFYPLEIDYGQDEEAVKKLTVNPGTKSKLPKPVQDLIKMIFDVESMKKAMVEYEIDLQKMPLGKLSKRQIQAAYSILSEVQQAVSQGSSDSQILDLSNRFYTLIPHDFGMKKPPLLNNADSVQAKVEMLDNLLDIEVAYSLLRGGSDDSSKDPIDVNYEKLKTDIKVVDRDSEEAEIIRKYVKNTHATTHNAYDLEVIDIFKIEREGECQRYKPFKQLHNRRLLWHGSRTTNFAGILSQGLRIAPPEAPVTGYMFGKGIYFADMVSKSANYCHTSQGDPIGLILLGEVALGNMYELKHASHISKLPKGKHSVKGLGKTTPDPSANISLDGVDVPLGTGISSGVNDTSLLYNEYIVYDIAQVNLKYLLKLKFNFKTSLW
# procedure-summary: In vitro filtration assay for PARP-1 inhibitory activity
# Format: biochemical
# experimental-context: nicked DNA activated PARP-1, [32P]-NAD, histones; read-out: In vitro filtration assay pIC50 (converted)
observable: IC50 (nM)

[I] CCc1cc2cc(C(c3ccccc3)n3ccnc3)ccc2[nH]c1=O (centres unmarked) [Compound 17]
[II] CCc1cc2cc(C(c3cccc(C(F)(F)F)c3)n3cnnc3)ccc2[nH]c1=O (centres unmarked) [Compound 72]
[III] CCc1cc2cc(C(OC(C)=O)c3ccccc3)ccc2[nH]c1=O (centres unmarked) [Compound 3]
// query Order the records by IC50, with each subsequent value no larger than the one before. Response field: labels, in requested order.
// result III, II, I

* * *

# tgt: PARP-1 enzyme (Homo sapiens, UniProt P09874)
# Construct: made in house
# procedure-summary: In vitro filtration assay for PARP-1 inhibitory activity
# Format: biochemical
# experimental-context: nicked DNA activated PARP-1, [32P]-NAD, histones; read-out: In vitro filtration assay pIC50 (converted)
observable: IC50 (µM)

// worked examples, IC50 included
> print(dat)
                                   compound  observable  recorded.measurement
1  CC(=O)NCCNC(c1ccccc1)c1ccc2[nH]c(=O)c(C)cc2c1 (stereo not drawn)        IC50                   3.9
2  CCc1cc2cc(C(c3ccccc3)N3CCC(=O)CC3)ccc2[nH]c1=O (stereo not drawn)        IC50                  3.97
3  CCc1nc2cc(C(c3ccc(F)cc3)n3ccnc3)ccc2[nH]c1=O (stereo not drawn)        IC50                  5.61
4  Cc1cc2cc(C(c3ccccc3)N3CCCCC3)ccc2[nH]c1=O (stereo not drawn)        IC50                  2.15
5  CCc1cc2cc(C(c3cccc(Cl)c3)N3CCC(=O)CC3)ccc2[nH]c1=O (stereo not drawn)        IC50                  1.74

[I] Cc1cc2cc(C(NC=O)c3ccc(F)cc3)ccc2[nH]c1=O (stereo not drawn)
[II] Cc1cccc(C(NC=O)c2ccc3[nH]c(=O)c(C)cc3c2)c1 (stereo not drawn)
[III] Cc1cc2cc(C(NC=O)c3cccc(Cl)c3)ccc2[nH]c1=O (stereo not drawn)
[IV] CCc1cc2cc(C(OCCN(C)C)c3ccccc3)ccc2[nH]c1=O (stereo not drawn)
// query Put the items in sequence by IC50, from largest down. Response field: labels, in requested order.
// result II, III, I, IV
(II: 3.83 µM, III: 2.38 µM, I: 1.59 µM, IV: 0.773 µM)

* * *

# tgt: PARP-1 enzyme (Homo sapiens, UniProt P09874)
# Construct: made in house
# procedure-summary: In vitro filtration assay for PARP-1 inhibitory activity
# Format: biochemical
# experimental-context: nicked DNA activated PARP-1, [32P]-NAD, histones; read-out: In vitro filtration assay pIC50 (converted)
observable: IC50 (µM)

> print(dat)
                                   compound  observable  units.of.measure  recorded.measurement
1  Cc1cc2cc(/C(=C/CN(C)C)c3cccc4[nH]c(=O)c(C)cc34)ccc2[nH]c1=O        IC50                µM                  4.18
2  CCc1cc2cc(C(c3ccc(Cl)cc3)N3CCC(NCCOC)CC3)ccc2[nH]c1=O (centres unmarked)        IC50                µM                  2.24
3  COc1cccc(C(NC=O)c2ccc3[nH]c(=O)c(C)cc3c2)c1 (centres unmarked)        IC50                µM                  2.84
4  CCc1nc2cc(CC(c3ccc(Cl)cc3)N3CCCCC3)ccc2[nH]c1=O (centres unmarked)        IC50                µM                  1.58
5  CCc1cc2cc(C(c3cccc(C(F)(F)F)c3)N3CCN(C)CC3)ccc2[nH]c1=O (centres unmarked)        IC50                µM                  3.91

[P] CCc1nc2cc(C(c3ccc(Cl)cc3)n3cncn3)ccc2[nH]c1=O (centres unmarked)
[Q] CCc1nc2cc(C(c3ccc(Cl)cc3)N3CCCCC3)ccc2[nH]c1=O (centres unmarked)
// query Just curious, which one has the larger IC50 reading, P or Q ? # respond with the chosen item's label
// result P
